Data origin: patent US10227331B2

Test system: P. aeruginosa expressing IMP-1, efflux+ (MB9798)
Type: cell-based, Pseudomonas aeruginosa
RECORDED CONDITIONS: ratio MITC95 PA_9798/MITC95 PA_9799
Measured Efflux ratio accompanies every entry in the list below.
OBSERVED PROPERTY: Efflux ratio

1. NCCCS(=O)(=O)c1ccc(-c2cccc3sc(N)nc23)c(-c2nn[nH]n2)c1S(N)(=O)=O [Example 194] ... 0.50
2. Cn1c(N)nc2c(-c3ccc(S(=O)(=O)C[C@H](O)CN)c(S(N)(=O)=O)c3-c3nn[nH]n3)cccc21 [Example 362] ... 1.00
3. Nc1nc2c(-c3ccc(S(=O)(=O)C4CNC4)c(S(N)(=O)=O)c3-c3nn[nH]n3)cccc2s1 [Example 317] ... 1.00
4. Cc1ccc(-c2ccc(S(=O)(=O)[C@@H]3CCNC3)c(S(N)(=O)=O)c2-c2nn[nH]n2)c2nc(N)sc12 [Example 187] ... 2.00
5. C[C@@H](N)CS(=O)(=O)c1ccc(-c2cccc3[nH]c(C(=O)O)nc23)c(-c2nn[nH]n2)c1S(N)(=O)=O [Example 348] ... 8.00
6. NCCS(=O)(=O)c1ccc(-c2c[nH]c3nccnc23)c(-c2nnn[nH]2)c1S(N)(=O)=O.O=C(O)C(F)(F)F [Example 136] ... 16.00
7. NCCS(=O)(=O)c1ccc(-c2cccc3oc(N)nc23)c(-c2nn[nH]n2)c1S(N)(=O)=O [Example 76] ... 1.00
8. CS(=O)(=O)Nc1nc2c(-c3ccc(S(=O)(=O)C4CCNCC4)c(S(N)(=O)=O)c3-c3nn[nH]n3)cccc2s1 [Example 325] ... 1.00
9. NS(=O)(=O)c1c(S(=O)(=O)C2CNC2)ccc([C@H]2CC[C@@H](N)CC2)c1-c1nnn[nH]1 [Example 213] ... 4.00
10. NS(=O)(=O)c1c(S(=O)(=O)C2CNC2)ccc(-c2ccnc(N3CCNC3=O)c2)c1-c1nnn[nH]1 [Example 343] ... 15.99
11. NC[C@@H](O)CS(=O)(=O)c1ccc(-c2cccc3[nH]c(N)nc23)c(-c2nn[nH]n2)c1S(N)(=O)=O [Example 312] ... 0.50
12. NS(=O)(=O)c1c(S(=O)(=O)[C@@H]2CCNC2)ccc(-c2cccc3cn[nH]c23)c1-c1nn[nH]n1 [Example 185] ... 2.00
13. NCCS(=O)(=O)c1ccc(-c2ccc(CO)nc2)c(-c2nnn[nH]2)c1S(N)(=O)=O.O=C(O)C(F)(F)F [Example 145] ... 8.00
14. NS(=O)(=O)c1c(SC2CNC2)ccc(-c2cccc3nccn23)c1-c1nnn[nH]1 [Example 63] ... 28.07

====

Attribute: pIC50
STUDY SYSTEM: VIM-1 (Pseudomonas aeruginosa (strain ATCC 15692 / DSM 22644 / CIP 104116 / JCM 14847 / LMG 12228 / 1C / PRS 101 / PAO1), UniProt A0A0F7KYQ8)
EXPERIMENT NOTES: biochemical
RECORDED CONDITIONS: CCF2-FA substrate, 2 hours at 25° C
pIC50: −log10 of the molar value.
OBSERVED PROPERTY: pIC50

1. Cn1ncc2cccc(-c3ccc(S(=O)(=O)C4CNC4)c(S(N)(=O)=O)c3-c3nnn[nH]3)c21.O=C(O)C(F)(F)F [Example 130, 2,2,2-trifluoroacetate] ... 9.61
2. NS(=O)(=O)c1c(S(=O)(=O)C2CNC2)ccc(-c2cncnc2)c1-c1nnn[nH]1.O=C(O)C(F)(F)F [Example 110, 2,2,2-trifluoroacetate] ... 8.46
3. NCCS(=O)(=O)c1ccc(-c2cccc(-n3cccn3)c2)c(-c2nnn[nH]2)c1S(N)(=O)=O.O=C(O)C(F)(F)F [Example 156, 2,2,2-trifluoroacetate] ... 9.13
4. NC1CCC(c2ccc(S(=O)(=O)CC3CNC3)c(S(N)(=O)=O)c2-c2nnn[nH]2)CC1 (centres unmarked) [Example 203] ... 9.23
5. N[C@H](CO)CS(=O)(=O)c1ccc(-c2cccc3[nH]cnc23)c(-c2nn[nH]n2)c1S(N)(=O)=O [Example 356] ... 9.46
6. CN1CC(S(=O)(=O)c2ccc(-c3cccc4[nH]c(N)nc34)c(-c3nn[nH]n3)c2S(N)(=O)=O)C1 [Example 52] ... 9.20
7. NS(=O)(=O)c1c(S(=O)(=O)C2CNC2)ccc(-c2ccnc(N3CCNC3=O)c2)c1-c1nnn[nH]1 [Example 343] ... 9.70
8. NCCS(=O)(=O)c1ccc(-c2cccc(C(=O)N[C@@H]3CCNC3)c2N)c(-c2nn[nH]n2)c1S(N)(=O)=O [Example 377] ... 9.17
9. CS(=O)(=O)c1ccc([C@H]2CC[C@@H](N)CC2)c(-c2nnn[nH]2)c1S(N)(=O)=O [Example 209] ... 7.28
10. Cn1cc2cc(-c3ccc(S(=O)(=O)CCN)c(S(N)(=O)=O)c3-c3nnn[nH]3)ccc2n1.O=C(O)C(F)(F)F [Example 153, 2,2,2-trifluoroacetate] ... 9.51
11. NCCS(=O)(=O)c1ccc(-c2ccc3nncn3c2)c(-c2nnn[nH]2)c1S(N)(=O)=O.O=C(O)C(F)(F)F [Example 146, 2,2,2-trifluoroacetate] ... 8.88
12. C[S+]([O-])c1ccc(-c2ccc(C3CCNCC3)cc2)c(-c2nnn[nH]2)c1S(N)(=O)=O (centres unmarked) [Example 235] ... 8.09
13. Cc1cc(-c2ccc(S(=O)(=O)C3CNC3)c(S(N)(=O)=O)c2-c2nnn[nH]2)cnc1C#N.O=C(O)C(F)(F)F [Example 99, 2,2,2-trifluoroacetate] ... 9.27
14. NCCS(=O)(=O)c1ccc(-c2cccc3c2NC(=O)C3O)c(-c2nnn[nH]2)c1S(N)(=O)=O (centres unmarked) [Example 347] ... 9.03
15. NS(=O)(=O)c1c(S(=O)(=O)C2CCNCC2)ccc([C@H]2CC[C@H](N)CC2)c1-c1nnn[nH]1 [Example 207] ... 9.15
16. CS(=O)(=O)N1CCC(S(=O)(=O)c2ccc(-c3cccc4nc(N)[nH]c34)c(-c3nn[nH]n3)c2S(N)(=O)=O)CC1 [Example 45] ... 9.87
17. Cc1ccc(-c2ccc(S(=O)(=O)C3CNC3)c(S(N)(=O)=O)c2-c2nn[nH]n2)c2nc(N)[nH]c12 [Example 15] ... 9.69
18. CC(N)CS(=O)(=O)c1ccc(-c2cccc3sc(N)nc23)c(-c2nn[nH]n2)c1S(N)(=O)=O (centres unmarked) [Example 269] ... 9.76
19. NS(=O)(=O)c1c(S(=O)(=O)C2CNC2)ccc(-c2cncc3[nH]c(=O)[nH]c23)c1-c1nnn[nH]1 [Example 301] ... 9.02
20. Cn1nc(N)c2c(-c3ccc(S(=O)(=O)CCN)c(S(N)(=O)=O)c3-c3nnn[nH]3)cccc21 [Example 266] ... 9.63

====

STUDY SYSTEM: IMP-1 (Serratia marcescens, UniProt P52699)
Sequence (P52699 whole entry, looked up, species assumed): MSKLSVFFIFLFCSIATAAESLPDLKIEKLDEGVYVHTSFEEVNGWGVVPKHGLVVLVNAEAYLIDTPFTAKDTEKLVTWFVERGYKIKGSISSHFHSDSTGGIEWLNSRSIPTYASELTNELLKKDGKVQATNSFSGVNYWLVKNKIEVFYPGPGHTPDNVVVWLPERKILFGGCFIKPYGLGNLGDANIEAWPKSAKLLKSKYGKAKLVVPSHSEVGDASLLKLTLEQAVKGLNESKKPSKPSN
EXPERIMENT NOTES: biochemical
Format: biochemical
RECORDED CONDITIONS: CCF2-FA substrate, 2 hours at 25° C; read-out: IMP-1 IC50
Binarize IC50 at 2 nM; below is true, at or above is false.

1. NCCS(=O)(=O)c1ccc(-c2cccc3[nH]c([C@H](N)CN)nc23)c(-c2nn[nH]n2)c1S(N)(=O)=O ... false
2. C[S+]([O-])c1ccc(-c2ccc(C3CCNCC3)cc2)c(-c2nnn[nH]2)c1S(N)(=O)=O (stereo not drawn) ... false
3. NS(=O)(=O)c1c(S(=O)(=O)C2CNC2)ccc(-c2cccc3[nH]c(=O)[nH]c23)c1-c1nnn[nH]1 ... true
4. NC(=O)N1CC(S(=O)(=O)c2ccc(-c3cccc4[nH]c(N)nc34)c(-c3nn[nH]n3)c2S(N)(=O)=O)C1 ... false
5. NCCS(=O)(=O)c1ccc(-c2ccc3c(c2)CNC3=O)c(-c2nnn[nH]2)c1S(N)(=O)=O.O=C(O)C(F)(F)F [Example 166, 2,2,2-trifluoroacetate] ... true
6. NS(=O)(=O)c1c([S+]([O-])C2CNC2)ccc(-c2cnc3ccccn23)c1-c1nn[nH]n1 (stereo not drawn) ... false
7. Cn1cnc2cc(-c3ccc(S(=O)(=O)C4CNC4)c(S(N)(=O)=O)c3-c3nnn[nH]3)cnc21.O=C(O)C(F)(F)F [Example 103, 2,2,2-trifluoroacetate] ... true
8. NS(=O)(=O)c1c([S+]([O-])C2CNC2)ccc(-c2ccc(C3CCNCC3)cc2)c1-c1nn[nH]n1 (stereo not drawn) ... false
9. NCCS(=O)(=O)c1ccc(-c2ccc3[nH]ncc3c2)c(-c2nnn[nH]2)c1S(N)(=O)=O.O=C(O)C(F)(F)F [Example 167, 2,2,2-trifluoroacetate] ... true
10. Nc1nc2cccc(-c3ccc(S(=O)(=O)[C@H]4C[C@@H](N)C4)c(S(N)(=O)=O)c3-c3nn[nH]n3)c2[nH]1 ... true
11. NS(=O)(=O)c1c(S(=O)(=O)C2CNC2)ccc(-c2cccc3[nH]c(C(=O)O)nc23)c1-c1nn[nH]n1 ... true
12. Nc1ncccc1-c1ccc(S(=O)(=O)C2CNC2)c(S(N)(=O)=O)c1-c1nn[nH]n1 ... false
13. NC[C@H](O)CS(=O)(=O)c1ccc(-c2cccc(-c3c[nH]c(N)n3)c2)c(-c2nn[nH]n2)c1S(N)(=O)=O ... true
14. NS(=O)(=O)c1c(S(=O)(=O)CC2CNC2)ccc([C@H]2CC[C@H](N)CC2)c1-c1nnn[nH]1 ... false
15. C[C@@H](N)CS(=O)(=O)c1ccc(-c2cccc3[nH]c(N)nc23)c(-c2nn[nH]n2)c1S(N)(=O)=O ... true
